target: BRAF V600E (Homo sapiens, UniProt P15056, V600E); construct: purchased Invitrogen; test: Z'-LYTE kinase inhibition assay against BRAF V600E; format: biochemical; conditions: % inhibition at 1 μM, Z'-LYTE method
Sequence (P15056 whole entry V600E): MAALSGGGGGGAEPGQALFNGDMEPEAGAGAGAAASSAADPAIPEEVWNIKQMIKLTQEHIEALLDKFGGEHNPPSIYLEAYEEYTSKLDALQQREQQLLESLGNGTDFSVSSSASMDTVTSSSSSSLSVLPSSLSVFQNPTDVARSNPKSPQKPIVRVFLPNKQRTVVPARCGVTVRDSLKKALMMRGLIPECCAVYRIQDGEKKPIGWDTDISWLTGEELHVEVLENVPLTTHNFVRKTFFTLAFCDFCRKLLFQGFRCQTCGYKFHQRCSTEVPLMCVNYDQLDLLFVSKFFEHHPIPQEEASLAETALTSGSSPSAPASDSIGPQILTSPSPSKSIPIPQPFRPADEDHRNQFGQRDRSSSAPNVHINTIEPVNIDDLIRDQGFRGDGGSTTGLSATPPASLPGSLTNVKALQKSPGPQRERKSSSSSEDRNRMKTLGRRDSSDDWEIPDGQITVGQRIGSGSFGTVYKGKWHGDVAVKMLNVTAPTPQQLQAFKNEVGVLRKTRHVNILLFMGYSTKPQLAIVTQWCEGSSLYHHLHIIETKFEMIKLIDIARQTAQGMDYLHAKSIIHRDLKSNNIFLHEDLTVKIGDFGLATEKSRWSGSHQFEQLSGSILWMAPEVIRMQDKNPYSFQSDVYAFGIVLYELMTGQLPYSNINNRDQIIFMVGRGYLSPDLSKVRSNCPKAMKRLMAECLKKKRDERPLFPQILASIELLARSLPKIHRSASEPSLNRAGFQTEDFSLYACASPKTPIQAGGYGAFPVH
Known inhibition at 1 µM of a selection of molecules

Answered cases to consult:
O=C(Nc1ccc(C(=O)c2ccc3ncc(N4CCOCC4)nc3c2)cc1)Nc1ccc(C(F)(F)F)cc1
< 70%
Cc1cc(NC(=O)Nc2ccc(C(=O)c3ccc4ncc(N5CCNCC5)nc4c3)c(F)c2)no1
> 89%

Lookup: I'm curious: which inhibition at 1 µM was measured for O=C(Nc1cccc(F)c1)Nc1ccc(C(=O)c2ccc3ncc(N4CCOCC4)nc3c2)c(F)c1 tested on BRAF V600E (Homo sapiens, UniProt P15056, V600E)?
Found: < 70%
